# measurementDescription: yeast display, Sf9 membrane polyspecificity reagent, FACS + sequencing; frameworks hold sequencing errors
propertyLabel: polyreactivity (PSR sort gate)

Solved entries:
>>> observedmeasurement("QVQLVESGGGLVQAGGSLRLSCAASGYTFKTYAMGWYRQAPGKERELVAAIRTSGGSTYYADSVKGRFTISRDNAKNTVYLQMNSLKPEDTAVYYCAAAFNYYGSLYDYWGQGTQVTVSS")
"high polyreactivity"
>>> observedmeasurement("QVQLVESGGGLVQAGGSLRLSCAASGRIFQYNAMGWYRQAPGKERELVAAIRRGGGSTYYADSVKGRFTISRDNAKNTVYLQMNSLKPEDTAVYYCADRRQRVSFYPEYDYWGQGTQVTVSS")
"low polyreactivity"
>>> observedmeasurement("QVQLVESGGGLVQAGGSLRLSCAASGRTFVTYGMGWYRQAPGKERQLVAAISKRGSRTYYADSVKGRFTISRDNAKNTVYLQMNSLKPEDTAVYYCNAETYRTTYDYWGQGTQVTVSS")
"high polyreactivity"
>>> observedmeasurement("QVQLVESGGGLVQAGGSLRLSCAASGSIFLYNAMGWYRQAPGKERELVAAIRGSDGITFYADSVKGRFTISRDNAKNTVYLQMNSLKPEDTAVYYCAKDTYRSPRHDYGYWGQGTQVTVSS")
"low polyreactivity"

Measured polyreactivity (PSR sort gate) of QVQLVESGGGLVQAGGSLRLSCAASGSIFNTYAMGWYRQAPGKERELVAAISRSGDSTYYADSVKGRFTISRDNAKNTVYLQMNSLKPEDSAVYYCATGRTDHGYYYWGQGTQVTVSS : high polyreactivity

Measured polyreactivity (PSR sort gate) of QVQLVESGGGLVQAGGSLRLSFAASGYIFYPNVMGWYRQAPGKERELVADISSGGSTNYADSVKGRFTISRDNAKNTVYLQINSLKPEDTAVYYCAKGPRLYFTRDKAHWKYDYWGQGTQVTVSS : low polyreactivity

Measured polyreactivity (PSR sort gate) of QVQLVESGGGLVQAGGSLRLSCAASGRTFTVYAMGWYRQAPGKEREFVAAITERGGSTYYADSVKGRFTISRDNAKNTVYLQMNSLKPEDTAVYYCAAVYYWRPGWYVRFDYWGQGTQVTVSS : low polyreactivity

Measured polyreactivity (PSR sort gate) of QVQLVESGGGLVQAGGSLRLSCAASGFTFAYNAMGWYRQAPGKERELVATISWSGGSTYYADSVKGRFTISRDNAKNTVYLQMNSLKPEDTAVYYCATTIFYTYYGLYDYWGQGTQVTVSS : high polyreactivity

Measured polyreactivity (PSR sort gate) of QVQLVESGGGLVQAGGSLRLSCAASGYNFYRYAMGWYRQAPGKEMELVATIRSGGSTNYADSVKGRFTISRDNAKNTVYLQMNSLKPEDTAVYYCAKVRGWYDPYTYGYSEYGYWGQGTQVTVSS : low polyreactivity

Measured polyreactivity (PSR sort gate) of QVHLVESGGGLVQAGGSLRLSCAASGFIFSYYAMGWYRQAPGKERELVAAISWTGGSTYYADSVKGRFTISRDNAKNTVYLQMNSLKPEDTAVYYCNKYYRAWLLWDYGYWGQGTQVTVSS : high polyreactivity

Measured polyreactivity (PSR sort gate) of QVQLVESGGGLVQAGGSLRLSCAASGGIFRGYAMGWYRQAPGKERELVAAISSRDGRTYYADSVKGRFTISRDNEKNTVYLQMNSLKPEDTAVYYCAASSFNNGHRYDYWGQGTQVTVSS : high polyreactivity

Measured polyreactivity (PSR sort gate) of QDQLVESGGGLVQAGGSLRLSCAASGRIFKSYAMGWYRQAPGKERELVAAIGSRTYYADSVKGRFTISRDNAKNTVYLQMNSLKPEDTAVYYCAVEVWGNSKRYYYWGQGTQVTVSS : high polyreactivity

----------
# measurementDescription: yeast display, Sf9 membrane polyspecificity reagent, FACS + sequencing; frameworks hold sequencing errors
propertyLabel: polyreactivity (PSR sort gate)

>>> observedmeasurement("QVHLQERGGGLVQAGGSLRLSCAASGSIFYWPWMGWYRQAPGREREFVATITTGSNTYYADSMKGHLTNSRDNAINTVYLQMISQKPEDTAVYFCAVVGDGEIEHRYWGQGTQVTVSS")
"high polyreactivity"
>>> observedmeasurement("QVQLVESGGGLVQAGGSLRLSCAASGSIFRPYAMGWYRQAPGKEREFVASISWRGGSTYADSVKGRFTISRDNAKNTVYLQMNSLKPEDTAVYYCAAKFWRYRYYEYDYWGQGTQVTVSS")
"high polyreactivity"
>>> observedmeasurement("QVQLVESGGGLGQAGGSLRLSCAASGITFSGNAMRWYRQAPGKEREYVAAITWRGENTYYADSVKGRFTISRDTAKNTVSLQMNSLKPVDTAVYYCAAISPLVGLTSYRGPDDSWGQGTQVTVSS")
"low polyreactivity"
>>> observedmeasurement("QVQLVESGGGLVQAGGSLRLSCAASGSIFQKYTMGWYRQAPGKERELVAAITRSGGSTYYADSVKGRFTISRDNAKNTVYLQMNSLKPEDSAVYYCNKRYIPWAYDYWGQGTQVTVSS")
"high polyreactivity"

Now let's try a different one.
Measured polyreactivity (PSR sort gate) of QVHLVESVGRLVQEGGSLRLICAASAFNIYTYAMGWSRQAPGKEREMVAAISKSGGSTYSADSVKGRFTISRDNAKNTVYVQMNSLKPVDTAVYYCAVSDARHLGSGRYYWCQGTQVTVSS : low polyreactivity

----------
# measurementDescription: yeast display, Sf9 membrane polyspecificity reagent, FACS + sequencing; frameworks hold sequencing errors
propertyLabel: polyreactivity (PSR sort gate)

Solved entries:
>>> observedmeasurement("QVQLVESGGGLVQAGGSLRLSCAASGSTFPGNARGWSRQAPGKLRELVAAIRWSGGRTYYADSVKGRFTISRDNAKNTVYLQMNSLNPEDTAVSYCNAVSDRPIPWYYYWGQGTQVTASS")
"low polyreactivity"
>>> observedmeasurement("QVQLVESGGGLVQAGVSLRLSCAASGRIFGTNAMGWYRQAPGKERELVADITSGGSTNYADSVKGRFTISRDTAKNTVYLQMNSLKPEDTALYYCAADVIGDMRWYRDEYRGQGTQVTVSS")
"low polyreactivity"
>>> observedmeasurement("QVQLVESGGGLVQAGGSLRLSCAASGRIGAYAMGWYRQAPGKERELVAAIRWSTGSTYYADSVKGRFTISRDNAKNTVFLQMNSLKPEDTAVYYCAAEFVRRGGDFWGQGTQVTVSS")
"high polyreactivity"
>>> observedmeasurement("QVQLVESGGGLVQAGGSLRISCAASGFIFGKNDMGWYRQATWKERELVAAITIGGSTNYADSVKGRFTFSRDNAKNTVYLQMNSLKPEDTAVYYCNADSYHYGTSLYNYWGQGTQLTVSS")
"low polyreactivity"
>>> observedmeasurement("QVQLVESGGGLVQAGGSLRLSCAASGIIFRSYTMGWYRQAPGKERELVASITRSGGITYYADSVKGRFTISRDNAKNTVYLQMNSLKPEDTAVYYCSARHRYYSYSGYDYWGQGTQVTVSS")
"high polyreactivity"
>>> observedmeasurement("QVQLVESGGGLVKAGGSLRLSCAASGSMFWSYAMGWYRQAPGKERELVAAISSGGSTNYADTVKGRFTISRDNAKNTVYLQMNSLKPEDTAVYYCSARFYTTCVRRKRYDYWGQGTQVNVSS")
"high polyreactivity"
>>> observedmeasurement("QVQLVESGGCLDQAGGSLRLSCAASGFTLHSYAMGWYRQAPGKERELVAAITTGGSTYYADSVKGRLTISRDNAKNTVYLQMNSLKPEDTAVYYCAAEDPGPYGGYVYWGQGTQVTVSS")
"low polyreactivity"
>>> observedmeasurement("QVQLQESGGGLVQAGGSLRLSCAASGSISGPQVMVWYRQAPGKEREFVAAINVGANTYYADNVKGRFTISRDNAKNTVYLQMNSLKPEDTAVYYCAAVYYGDIGHESWGQGTQVTVSC")
"low polyreactivity"
>>> observedmeasurement("QVQLVESGGGLVQAGGSLRLSCAAYGNTFYPYTMGWYRQAPGKERELVADITYIGGDTYYADSVKGRFTISRDNAKNTVYLQMNSLKPEDTAVYYCNKDGGYFETYHTYTLDDYWGQGTQVTVSS")
"low polyreactivity"
>>> observedmeasurement("QVQLVESGGGLVQAGGSLRLSCAASGRIFLVYVMGWYRQAPGKERELVAAISASDGSTYYADSVKGRFTISRDNAKNTVYLQMNSLKPEDTAVYYCAEWGYSLDSNSYRELNYWGQGTQVTVSS")
"low polyreactivity"

Now let's try a different one.
Measured polyreactivity (PSR sort gate) of QVQLVESGGGLVQAGGSLRLSCAASGSIFYLNAMGWYRPAPGKERELVAAIRWSGGSTRYADSVKGRFTISRDNAKITVYLQLNSLKPEDTAVYSCAADTYVYTLGRYYYWGQGTQVTVSS : high polyreactivity

----------
# measurementDescription: yeast display, Sf9 membrane polyspecificity reagent, FACS + sequencing; frameworks hold sequencing errors
propertyLabel: polyreactivity (PSR sort gate)

Solved entries:
>>> observedmeasurement("QVHLQESGGGLVQAGGSLRLSCAASGTIFRFRNMGWHRQAPGKERELVAGINGGTTTYYADSVIGRFTISRDNAKNTVYLQMNSLKPDDTAVYNCAAGASRLTYYDYWGQGTQVTVSS")
"low polyreactivity"
>>> observedmeasurement("QVQLVDSGGGLVQAGGSLRLSCAASGRTFRSYAMGWYRQAPGKERELVAAITWNGGGTYYADSVKGRFTMSRDNAKNTVYLQMNSLKPEETAVYYCAGRGRTDSYWRFYHWGQGTQVTVSS")
"high polyreactivity"
>>> observedmeasurement("QVQLVESGGGLVQAGGSLRLSCAASGFNFYSYAMGWYKQAPGKERELVAVTYADSVKGRFTISRDNAQNTVYLQMNSLKPEDTAVYYCAALEYLDGPLSDYWGQGTQVTVSS")
"low polyreactivity"
>>> observedmeasurement("QVQLVESGGGLVQAGGSLRLSCAASGSTIGSYAMGWYRQAPGKERELVAAITWNGGGTYYADSVKGRFTISRDNAKNTVYLQMNSLKPEDTAVYYCAADGWFGRVAPGSDYWGQGTQVTVSS")
"low polyreactivity"
>>> observedmeasurement("QVQLVESGGGLDQAGGSLRLSCAASVLIFNIYARGWYRQAPGKERELVATIRYSGGSTNYADSVKGRFTISRDNAKNTVYLQMNSLKPEDTAVYYCNAGYYPSGYDYWGQGTQVTVSS")
"low polyreactivity"

Measured polyreactivity (PSR sort gate) of QVQLVESGGGLVQAGGSLRLSCAASGSIFLLYAMGWYRQAPGKERELVARISWSGDNTRYADSVKGRFTISPDNAKNTVYLQMNSLKPEDTAVYYCNAYFFYGQWKGYDYWGQGTQVTVSS : low polyreactivity

Measured polyreactivity (PSR sort gate) of QVQLVESGGGLVQAGGSLRLSCAASGSTFPPNAMGWYRQARGKARELVAVISYSDGSTYYADSVNGRFTISRDNAKNTVYLQMNSLKPEDTAVYYCAAYSGYAGVSMYYWGQGTQVTVSS : low polyreactivity

Measured polyreactivity (PSR sort gate) of QVQLVESGGGLVQAGGSLRLSCAASGSIFYWNVMGWYRQAPGKERELVAGISTSVGNTYYADSVKGRFTISRDNAKNTVYLQMNSLKPEDTAVYYCNVAGKQKPYYVTTRLDYWGQGTQVTVSS : high polyreactivity
